Source of measurements: PubChem BioAssay AID488969

biological target: Metabotropic glutamate receptor 8 (Rattus norvegicus) (UniProt P70579); experiment: mGluR8 Gi/Go-coupled signaling modulation – cell-based, rat, thallium flux, HTS, primary screen (AID 488969); settings: HEK293 rat mGluR8, GIRK (G protein-gated inwardly rectifying potassium channel) thallium flux, FluoZin2; at 10 µM; stronger effect = higher value; submaximal glutamate (EC20) added with thallium
Sequence (P70579 whole entry, looked up): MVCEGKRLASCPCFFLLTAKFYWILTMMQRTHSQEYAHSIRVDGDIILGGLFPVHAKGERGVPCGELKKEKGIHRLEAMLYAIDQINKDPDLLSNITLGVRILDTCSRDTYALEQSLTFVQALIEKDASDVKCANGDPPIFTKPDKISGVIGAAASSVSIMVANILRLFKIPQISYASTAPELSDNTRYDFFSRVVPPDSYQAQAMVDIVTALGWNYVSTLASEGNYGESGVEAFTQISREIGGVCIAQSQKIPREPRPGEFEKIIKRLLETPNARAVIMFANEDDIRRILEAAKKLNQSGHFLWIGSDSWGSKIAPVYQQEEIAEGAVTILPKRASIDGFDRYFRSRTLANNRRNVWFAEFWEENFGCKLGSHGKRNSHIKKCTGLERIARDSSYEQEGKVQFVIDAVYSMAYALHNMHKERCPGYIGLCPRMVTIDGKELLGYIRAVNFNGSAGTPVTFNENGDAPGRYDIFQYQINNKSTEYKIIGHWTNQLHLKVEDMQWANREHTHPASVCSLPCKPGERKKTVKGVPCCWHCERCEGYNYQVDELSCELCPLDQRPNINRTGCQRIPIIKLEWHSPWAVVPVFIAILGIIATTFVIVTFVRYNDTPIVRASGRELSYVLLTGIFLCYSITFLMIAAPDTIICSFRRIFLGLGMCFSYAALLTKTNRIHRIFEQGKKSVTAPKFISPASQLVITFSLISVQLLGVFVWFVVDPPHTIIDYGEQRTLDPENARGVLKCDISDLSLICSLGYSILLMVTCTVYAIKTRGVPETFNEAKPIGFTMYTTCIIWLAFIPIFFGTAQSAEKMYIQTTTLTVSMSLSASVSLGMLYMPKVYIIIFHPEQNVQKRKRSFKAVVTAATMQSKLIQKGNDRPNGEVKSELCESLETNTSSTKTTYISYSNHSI
The full ranking holds about 110,000 compounds; the median of “z-score” is about -0.1, and the highest 2% start at about 2. The full list was thinned out, with the highest values kept by preference.
Below: a set of entries, each annotated with reported z-score.
endpoint: z-score

- Cc1ccc(/C=C/C(=O)c2ccc(C)cc2)cc1: 0.025
- C=CCN(CC=C)C(=S)NCCc1ccc(OC)c(OC)c1: -0.0119
- O=S(=O)(c1ccccc1)c1nc(-c2ccccc2)oc1N1CCCCC1: -0.0433
- C=CCN(CC=C)C(=S)NC(=O)c1ccc(C)c(Br)c1: 15.3
- COc1ccc(NC(=O)N2CC(C)OC(C)C2)cc1OC (stereo unspecified): -0.307
- CCc1ccc(/C=C/C(=O)c2ccc(S(=O)(=O)N(C)C)cc2)cc1: -0.379
- C=CCN(CC=C)S(=O)(=O)c1ccc(NC(=S)NC(=O)/C=C/c2ccc(C)cc2)cc1: -0.0815
- COc1ccc(C(=O)NCc2ccccc2)cc1Br: -0.234
- COc1nc(NCCc2ccc(OC)c(OC)c2)nc(OC)n1: -0.163
- COc1ccc(C(=O)NC(=S)NC(C)C)cc1Br: 1.79
- COCCNC(=O)c1ccc(-n2c(SCc3cc(F)ccc3F)nc3ccccc3c2=O)cc1: -0.0902
